Attribution: patent US20030216569A1

Tested on: Viral SN123 infected CEM cells
ASSAY_CONTEXT: Human immunodeficiency virus 1, CCRF-CEM, read-out: Whole cell IC50 nM, CEM cells; values in parentheses are 35B in same assay
EXPERIMENTAL_READOUT: IC50 (nM)

molecule="Cc1c(O)cccc1C(=O)N[C@@H](CSc1ccccc1)[C@H](O)CN1C[C@H]2CCCC[C@H]2C[C@H]1C(=O)NC(C)(C)C (relative stereo) [Example 75]" meas_value=14.5
molecule="CC(C)(C)NC(=O)C1CC2CCCCC2CN1CC(O)C(CSc1ccccc1)NC(=O)c1cccc2c1CCCN2 (stereo not drawn) [Example 32]" meas_value=539
molecule="Cc1c(O)cccc1C(=O)N[C@@H](CSc1ccccc1)[C@H](O)CN1CCN(Cc2cccnc2)C[C@H]1C(=O)NC(C)(C)C [Example 19]" meas_value=16.1
